# key: entry, value: IC50
Biological target: CLK2(h) (Homo sapiens)
Construct: purchased Eurofins, Dundee, Scotland
Sequence (P49760 whole entry): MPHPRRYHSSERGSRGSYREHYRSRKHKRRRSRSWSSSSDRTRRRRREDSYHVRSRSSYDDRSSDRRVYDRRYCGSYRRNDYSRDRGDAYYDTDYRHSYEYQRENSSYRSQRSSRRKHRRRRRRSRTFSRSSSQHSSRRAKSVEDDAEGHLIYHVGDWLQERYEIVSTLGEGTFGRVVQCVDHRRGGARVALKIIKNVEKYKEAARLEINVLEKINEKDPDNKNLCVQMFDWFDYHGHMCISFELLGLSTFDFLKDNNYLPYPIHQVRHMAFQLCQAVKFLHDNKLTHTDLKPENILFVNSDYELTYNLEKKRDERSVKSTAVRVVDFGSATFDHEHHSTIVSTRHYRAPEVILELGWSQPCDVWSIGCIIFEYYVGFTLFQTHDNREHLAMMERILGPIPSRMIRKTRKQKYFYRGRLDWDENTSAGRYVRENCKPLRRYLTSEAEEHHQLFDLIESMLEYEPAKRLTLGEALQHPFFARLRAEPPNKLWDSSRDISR
Test: radiometric protein kinase assay, CLK2
Assay type: biochemical
Conditions: enzyme inhibition, ATP 10 μM
PARAMETER: IC50 (nM)

INSERT INTO measurements (molecule, readout_value) VALUES
  ('CC(C)n1cnc2c(Nc3cc(N)cc(Cl)c3)nc(N[C@@H]3CCNC3)nc21', 92),
  ('CC(C)n1cnc2c(Nc3cc(N)cc(Cl)c3)nc(N[C@@H]3CCCNC3)nc21', 34),
  ('CC(C)n1cnc2c(Nc3cc(N)cc(Cl)c3)nc(N[C@@H]3CCCC[C@@H]3N)nc21', 6),
  ('CC(C)n1cnc2c(Nc3cccc(Cl)c3)nc(N[C@@H]3CCCC[C@H]3N)nc21', 120),
  ('CC(=O)Nc1cc(Cl)cc(Nc2nc(N[C@@H]3CCCC[C@@H]3N)nc3c2ncn3C(C)C)c1', 7),
  ('CC(=O)Nc1cc(Cl)cc(Nc2nc(NC3CCCCC3N)nc3c2ncn3C(C)C)c1 (racemic)', 13),
  ('CCn1cnc2c(Nc3cccc(Cl)c3)nc(N[C@H]3CCCC[C@@H]3N)nc21', 190),
  ('CC(C)n1cnc2c(Nc3cccc(Cl)c3)nc(N[C@H]3CCCC[C@H]3N)nc21', 26),
  ('CCn1cnc2c(Nc3cccc(Cl)c3)nc(N[C@@H]3CCCC[C@H]3N)nc21', 498),
  ('CC(C)n1cnc2c(Nc3cc(N)cc(Cl)c3)nc(N[C@H]3CCCC[C@@H]3N)nc21', 14),
  ('CC(=O)Nc1cc(Cl)cc(Nc2nc(N[C@H]3CCCC[C@H]3N)nc3c2ncn3C(C)C)c1', 17),
  ('CC(C)n1cnc2c(Nc3cc(N)cc(Cl)c3)nc(N[C@@H]3CCCC[C@H]3N)nc21', 163),
  ('CC(C)n1cnc2c(Nc3cc(N)cc(Cl)c3)nc(N[C@H]3CCCNC3)nc21', 26),
  ('CC(C)n1cnc2c(Nc3cc(N)cc(Cl)c3)nc(NC3CCCCC3N)nc21 (racemic)', 16),
  ('CC(C)n1cnc2c(Nc3cccc(Cl)c3)nc(N[C@@H]3CCCC[C@@H]3N)nc21', 11),
  ('CC(C)n1cnc2c(Nc3cc(N)cc(Cl)c3)nc(N[C@H]3CCNC3)nc21', 28);

---

Molecular target: CLK4(h) (Homo sapiens, UniProt Q9HAZ1)
Construct: purchased Eurofins, Dundee, Scotland
Sequence (Q9HAZ1 whole entry): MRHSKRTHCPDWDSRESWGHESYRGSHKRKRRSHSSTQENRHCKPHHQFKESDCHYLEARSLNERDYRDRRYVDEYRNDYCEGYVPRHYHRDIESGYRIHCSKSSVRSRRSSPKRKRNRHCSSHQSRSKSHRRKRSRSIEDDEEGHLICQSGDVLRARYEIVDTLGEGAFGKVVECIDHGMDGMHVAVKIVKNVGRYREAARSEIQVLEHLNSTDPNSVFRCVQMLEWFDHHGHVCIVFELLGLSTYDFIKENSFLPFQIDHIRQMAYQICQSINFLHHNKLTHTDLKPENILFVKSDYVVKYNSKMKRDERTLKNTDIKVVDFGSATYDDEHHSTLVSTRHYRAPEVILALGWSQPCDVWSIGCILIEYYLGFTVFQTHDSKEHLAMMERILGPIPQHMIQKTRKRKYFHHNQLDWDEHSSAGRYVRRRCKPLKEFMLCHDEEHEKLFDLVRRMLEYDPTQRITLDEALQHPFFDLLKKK
Test: radiometric protein kinase assay, CLK4
Type: biochemical
Conditions: enzyme inhibition, ATP 10 μM
PARAMETER: IC50 (nM)

INSERT INTO assay_data (test_smiles, parameter, reported_relation, readout_value) VALUES
  ('CC(C)n1cnc2c(Nc3cc(N)cc(Cl)c3)nc(N[C@@H]3CCNC3)nc21', 'IC50', '=', 299),
  ('CC(C)n1cnc2c(Nc3cccc(Cl)c3)nc(N[C@H]3CCCC[C@@H]3N)nc21', 'IC50', '=', 86),
  ('CC(=O)Nc1cc(Cl)cc(Nc2nc(N[C@H]3CCCC[C@H]3N)nc3c2ncn3C(C)C)c1', 'IC50', '=', 31),
  ('CCn1cnc2c(Nc3cccc(Cl)c3)nc(N[C@@H]3CCCC[C@H]3N)nc21', 'IC50', '>', 1000);

---

Target: CDK1/cyclinB(h) (Homo sapiens)
Construct: purchased Eurofins, Dundee, Scotland
Sequence (P06493 whole entry): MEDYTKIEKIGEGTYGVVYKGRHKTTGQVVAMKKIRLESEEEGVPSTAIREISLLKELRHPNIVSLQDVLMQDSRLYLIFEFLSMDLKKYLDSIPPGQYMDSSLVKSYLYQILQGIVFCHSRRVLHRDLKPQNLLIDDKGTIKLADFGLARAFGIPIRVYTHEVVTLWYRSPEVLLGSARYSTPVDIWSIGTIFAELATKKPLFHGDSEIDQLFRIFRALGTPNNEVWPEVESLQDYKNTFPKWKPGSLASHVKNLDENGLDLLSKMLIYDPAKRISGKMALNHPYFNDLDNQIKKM
Sequence (P14635 whole entry partner): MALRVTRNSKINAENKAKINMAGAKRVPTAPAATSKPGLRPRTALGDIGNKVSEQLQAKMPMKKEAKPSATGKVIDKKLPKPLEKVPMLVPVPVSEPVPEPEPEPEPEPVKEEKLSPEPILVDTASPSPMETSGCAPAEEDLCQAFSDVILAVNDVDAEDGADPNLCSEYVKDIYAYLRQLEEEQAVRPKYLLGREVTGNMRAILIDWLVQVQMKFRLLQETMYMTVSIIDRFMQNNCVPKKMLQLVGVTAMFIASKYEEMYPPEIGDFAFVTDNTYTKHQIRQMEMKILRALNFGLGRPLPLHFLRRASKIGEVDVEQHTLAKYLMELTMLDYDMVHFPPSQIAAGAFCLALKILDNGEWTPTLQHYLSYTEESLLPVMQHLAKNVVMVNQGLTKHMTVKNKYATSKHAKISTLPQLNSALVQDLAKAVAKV
Assay: radiometric protein kinase assay, CDK1
Format: biochemical
Conditions: enzyme inhibition, ATP 45 μM
# key: entry, value: IC50
PARAMETER: IC50

INSERT INTO results (compound, parameter, readout_value) VALUES
  ('CC(=O)Nc1cc(Cl)cc(Nc2nc(N[C@@H]3CCCC[C@@H]3N)nc3c2ncn3C(C)C)c1', 'IC50', '> 1000 nM'),
  ('CCn1cnc2c(Nc3cccc(Cl)c3)nc(N[C@H]3CCCC[C@@H]3N)nc21', 'IC50', '> 1000 nM'),
  ('CC(C)n1cnc2c(Nc3cccc(Cl)c3)nc(N[C@H]3CCCC[C@H]3N)nc21', 'IC50', '> 1000 nM'),
  ('CC(C)n1cnc2c(Nc3cc(N)cc(Cl)c3)nc(N[C@@H]3CCCNC3)nc21', 'IC50', '> 1000 nM'),
  ('CCn1cnc2c(Nc3cccc(Cl)c3)nc(N[C@@H]3CCCC[C@H]3N)nc21', 'IC50', '546 nM'),
  ('CC(C)n1cnc2c(Nc3cccc(Cl)c3)nc(N[C@@H]3CCCC[C@H]3N)nc21', 'IC50', '> 1000 nM'),
  ('CCn1cnc2c(Nc3cccc(Cl)c3)nc(NC3CCCCC3N)nc21 (racemic) [CGP-74514A (1), reference compound]', 'IC50', '382 nM'),
  ('CC(C)n1cnc2c(Nc3cc(N)cc(Cl)c3)nc(NC3CCCCC3N)nc21 (racemic)', 'IC50', '973 nM'),
  ('CC(C)n1cnc2c(Nc3cc(N)cc(Cl)c3)nc(N[C@H]3CCNC3)nc21', 'IC50', '> 1000 nM'),
  ('CC(C)n1cnc2c(Nc3cc(N)cc(Cl)c3)nc(N[C@@H]3CCCC[C@H]3N)nc21', 'IC50', '> 1000 nM'),
  ('CC(C)n1cnc2c(Nc3cc(N)cc(Cl)c3)nc(N[C@@H]3CCNC3)nc21', 'IC50', '> 1000 nM'),
  ('CC(C)n1cnc2c(Nc3cc(N)cc(Cl)c3)nc(N[C@H]3CCCNC3)nc21', 'IC50', '> 1000 nM'),
  ('CC(C)n1cnc2c(Nc3cc(N)cc(Cl)c3)nc(N[C@H]3CCCC[C@@H]3N)nc21', 'IC50', '> 1000 nM'),
  ('CC(C)n1cnc2c(Nc3cc(N)cc(Cl)c3)nc(N[C@H]3CCCC[C@H]3N)nc21', 'IC50', '> 1000 nM'),
  ('CC(=O)Nc1cc(Cl)cc(Nc2nc(N[C@H]3CCCC[C@H]3N)nc3c2ncn3C(C)C)c1', 'IC50', '> 1000 nM'),
  ('CC(=O)Nc1cc(Cl)cc(Nc2nc(NC3CCCCC3N)nc3c2ncn3C(C)C)c1 (racemic)', 'IC50', '> 1000 nM');

---

# key: entry, value: IC50
Target: CLK1(h) (Homo sapiens, UniProt P49759)
Construct: purchased Eurofins, Dundee, Scotland
Sequence (P49759 whole entry): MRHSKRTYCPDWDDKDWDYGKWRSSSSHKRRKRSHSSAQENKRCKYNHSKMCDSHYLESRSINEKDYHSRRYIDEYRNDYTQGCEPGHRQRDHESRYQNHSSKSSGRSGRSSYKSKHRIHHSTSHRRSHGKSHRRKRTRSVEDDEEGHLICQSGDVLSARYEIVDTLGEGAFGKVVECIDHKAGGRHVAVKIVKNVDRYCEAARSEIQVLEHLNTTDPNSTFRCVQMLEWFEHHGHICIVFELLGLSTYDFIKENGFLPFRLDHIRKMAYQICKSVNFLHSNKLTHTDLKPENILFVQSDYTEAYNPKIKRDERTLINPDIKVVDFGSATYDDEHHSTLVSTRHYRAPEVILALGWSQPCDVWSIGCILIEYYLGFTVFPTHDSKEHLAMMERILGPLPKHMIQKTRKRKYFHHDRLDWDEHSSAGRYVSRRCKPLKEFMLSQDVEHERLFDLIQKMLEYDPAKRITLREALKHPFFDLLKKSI
Assay: radiometric protein kinase assay, CLK1
Assay type: biochemical
Conditions: enzyme inhibition, radiometric, ATP 10 μM; read-out: IC50 (nM) CLK1
PARAMETER: IC50

INSERT INTO assay_data (compound, parameter, readout_value) VALUES
  ('CC(C)n1cnc2c(Nc3cc(N)cc(Cl)c3)nc(N[C@H]3CCCC[C@H]3N)nc21', 'IC50', '21 nM'),
  ('CC(C)n1cnc2c(Nc3cccc(Cl)c3)nc(N[C@H]3CCCC[C@H]3N)nc21', 'IC50', '74 nM'),
  ('CC(C)n1cnc2c(Nc3cccc(Cl)c3)nc(N[C@H]3CCCC[C@@H]3N)nc21', 'IC50', '78 nM'),
  ('CCn1cnc2c(Nc3cccc(Cl)c3)nc(N[C@@H]3CCCC[C@H]3N)nc21', 'IC50', '868 nM'),
  ('CC(C)n1cnc2c(Nc3cc(N)cc(Cl)c3)nc(N[C@@H]3CCCC[C@H]3N)nc21', 'IC50', '274 nM'),
  ('CC(C)n1cnc2c(Nc3cc(N)cc(Cl)c3)nc(N[C@@H]3CCNC3)nc21', 'IC50', '118 nM'),
  ('CC(C)n1cnc2c(Nc3cc(N)cc(Cl)c3)nc(N[C@H]3CCCC[C@@H]3N)nc21', 'IC50', '56 nM'),
  ('CC(=O)Nc1cc(Cl)cc(Nc2nc(N[C@@H]3CCCC[C@@H]3N)nc3c2ncn3C(C)C)c1', 'IC50', '19 nM'),
  ('CC(=O)Nc1cc(Cl)cc(Nc2nc(NC3CCCCC3N)nc3c2ncn3C(C)C)c1 (racemic)', 'IC50', '19 nM'),
  ('CC(C)n1cnc2c(Nc3cc(N)cc(Cl)c3)nc(N[C@@H]3CCCC[C@@H]3N)nc21', 'IC50', '17 nM'),
  ('CC(=O)Nc1cc(Cl)cc(Nc2nc(N[C@H]3CCCC[C@H]3N)nc3c2ncn3C(C)C)c1', 'IC50', '26 nM'),
  ('CC(C)n1cnc2c(Nc3cc(N)cc(Cl)c3)nc(NC3CCCCC3N)nc21 (racemic)', 'IC50', '18 nM'),
  ('CC(C)n1cnc2c(Nc3cc(N)cc(Cl)c3)nc(N[C@@H]3CCCNC3)nc21', 'IC50', '66 nM'),
  ('CC(C)n1cnc2c(Nc3cc(N)cc(Cl)c3)nc(N[C@H]3CCNC3)nc21', 'IC50', '71 nM'),
  ('CC(C)n1cnc2c(Nc3cccc(Cl)c3)nc(N[C@@H]3CCCC[C@H]3N)nc21', 'IC50', '400 nM'),
  ('CC(C)n1cnc2c(Nc3cccc(Cl)c3)nc(N[C@@H]3CCCC[C@@H]3N)nc21', 'IC50', '38 nM'),
  ('CCn1cnc2c(Nc3cccc(Cl)c3)nc(N[C@H]3CCCC[C@@H]3N)nc21', 'IC50', '371 nM'),
  ('CC(C)n1cnc2c(Nc3cc(N)cc(Cl)c3)nc(N[C@H]3CCCNC3)nc21', 'IC50', '31 nM');

FYI, the data here is from patent US10722515B2.
